In this section, each of the compounds is paired with its reported inhibition at 10 µM.
# measurement_target: uterine OT receptors (Rattus norvegicus)
# Construct: using a crude membrane preparation of uteri; from tissue; host or cells: rat uterus, crude membrane preparation (DES-treated rats)
# protocol_text: [3H]oxytocin (OT) radioligand binding, uterine membranes
# condition_info: @ 10 uM; read-out: % Inhibition rat OT
measurement_type: inhibition at 10 µM (%)

[[record]]
compound = "O=C(c1cccc2ccccc12)N1CCC(N2C(=O)CCc3ccccc32)CC1 [CO, 1-naphthyl]"
meas_value = 69

[[record]]
compound = "O=C(c1ccc(Cl)cc1Cl)N1CCC(N2C(=O)CCc3ccccc32)CC1 [o-Cl, p-Cl]"
meas_value = 7

[[record]]
compound = "COc1ccc(S(=O)(=O)N2CCC(N3C(=O)CCc4ccccc43)CC2)cc1 [SO2, p-C6H4OCH3]"
meas_value = 36

[[record]]
compound = "Cc1ccc(C(=O)N2CCC(N3C(=O)CCc4ccccc43)CC2)c(C)c1 [o-CH3, p-CH3]"
meas_value = 79


---

# measurement_target: AVP-V1 sites (Rattus norvegicus)
# Construct: crude membrane preparation of male rat liver; from tissue; host or cells: male rat liver, crude membrane preparation
# Sequence (P30560 whole entry): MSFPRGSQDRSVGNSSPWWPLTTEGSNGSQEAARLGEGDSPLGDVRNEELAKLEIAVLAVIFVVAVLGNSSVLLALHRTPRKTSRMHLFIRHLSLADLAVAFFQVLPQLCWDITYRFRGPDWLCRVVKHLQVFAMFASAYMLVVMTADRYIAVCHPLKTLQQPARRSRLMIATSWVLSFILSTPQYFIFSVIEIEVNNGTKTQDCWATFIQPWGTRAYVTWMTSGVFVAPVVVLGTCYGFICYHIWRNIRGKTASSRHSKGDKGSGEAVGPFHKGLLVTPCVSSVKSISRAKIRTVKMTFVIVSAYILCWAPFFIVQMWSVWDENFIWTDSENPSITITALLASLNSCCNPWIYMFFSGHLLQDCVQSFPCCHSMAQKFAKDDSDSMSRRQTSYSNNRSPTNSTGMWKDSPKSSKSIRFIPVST
# protocol_text: [3H]vasopressin (AVP) radioligand binding, liver membranes (AVP-V1 sites)
# condition_info: @ 3 uM; read-out: % Inhibition rat V1
Assign criterion met whenever inhibition at 3 µM does not fall below 30%; assign criterion not met whenever it does.

[[record]]
compound = "Nc1ccc(CC(=O)N2CCC(N3C(=O)CCc4ccccc43)CC2)cc1 [CO, p-CH2C6H4NH2]"
cat = "criterion not met"

[[record]]
compound = "COc1ccc(S(=O)(=O)N2CCC(N3C(=O)CCc4ccccc43)CC2)cc1 [SO2, p-C6H4OCH3]"
cat = "criterion not met"

[[record]]
compound = "Cc1ccc(C(=O)N2CCC(N3C(=O)CCc4ccccc43)CC2)c(C)c1 [o-CH3, p-CH3]"
cat = "criterion met"

[[record]]
compound = "O=C(c1cccc2ccccc12)N1CCC(N2C(=O)CCc3ccccc32)CC1 [CO, 1-naphthyl]"
cat = "criterion not met"

[[record]]
compound = "O=C(c1ccc(Cl)cc1Cl)N1CCC(N2C(=O)CCc3ccccc32)CC1 [o-Cl, p-Cl]"
cat = "criterion met"


---

A collection of molecules and their measured IC50
# measurement_target: UniProt:P70536
# Sequence (P70536 1-388): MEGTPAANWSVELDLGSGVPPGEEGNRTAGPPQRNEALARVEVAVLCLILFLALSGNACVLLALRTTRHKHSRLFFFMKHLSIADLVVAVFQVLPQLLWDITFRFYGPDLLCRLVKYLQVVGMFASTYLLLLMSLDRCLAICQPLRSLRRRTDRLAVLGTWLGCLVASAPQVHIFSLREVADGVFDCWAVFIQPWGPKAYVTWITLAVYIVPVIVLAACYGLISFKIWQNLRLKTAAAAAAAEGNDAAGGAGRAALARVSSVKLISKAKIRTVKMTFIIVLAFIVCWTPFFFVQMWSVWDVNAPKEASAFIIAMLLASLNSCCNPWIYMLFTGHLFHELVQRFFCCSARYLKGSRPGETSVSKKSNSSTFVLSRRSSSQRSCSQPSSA
measurement_type: IC50 (nM)

[[record]]
molecule = "COc1ccc(C(=O)N2CCC(N3C(=O)CCc4ccccc43)CC2)c(OC)c1 [Example 5]"
measurement_type = "IC50"
meas_value = 560

[[record]]
molecule = "CC1(C)[C@@H]2CC[C@@]1(CS(=O)(=O)N1CCC(N3C(=O)CCc4ccccc43)CC1)C(=O)C2 [SO2, (+)-camphor-10-yl]"
measurement_type = "IC50"
meas_value = 1900

[[record]]
molecule = "O=C(c1ccc(-c2ccccc2)cc1)N1CCC(N2C(=O)CCc3ccccc32)CC1 [C6H5]"
measurement_type = "IC50"
meas_value = 3500

[[record]]
molecule = "O=C(c1ccc([N+](=O)[O-])cc1Cl)N1CCC(N2C(=O)CCc3ccccc32)CC1 [o-Cl, p-NO2]"
measurement_type = "IC50"
meas_value = 15000

[[record]]
molecule = "COc1ccccc1C(=O)N1CCC(N2C(=O)CCc3ccccc32)CC1 [o-OCH3]"
measurement_type = "IC50"
meas_value = 1100

[[record]]
molecule = "COc1ccc(CC(=O)N2CCC(N3C(=O)CCc4ccccc43)CC2)cc1 [CO, p-CH2C6H4OCH3]"
measurement_type = "IC50"
meas_value = 2400

[[record]]
molecule = "O=C(c1ccc(OCCCN2C(=O)c3ccccc3C2=O)cc1)N1CCC(N2C(=O)CCc3ccccc32)CC1 [Example 2]"
measurement_type = "IC50"
meas_value = 1100

[[record]]
molecule = "COc1cccc(C(=O)N2CCC(N3C(=O)CCc4ccccc43)CC2)c1 [m-OCH3]"
measurement_type = "IC50"
meas_value = 2700

[[record]]
molecule = "CC(=O)Nc1ccc(CC(=O)N2CCC(N3C(=O)CCc4ccccc43)CC2)cc1 [CO, p-CH2C6H4NHAc]"
measurement_type = "IC50"
meas_value = 2300

[[record]]
molecule = "O=C(c1ccc2[nH]ccc2c1)N1CCC(N2C(=O)CCc3ccccc32)CC1 [CO, 5-indolyl]"
measurement_type = "IC50"
meas_value = 1700

